- assayedTarget: human liver GK (Homo sapiens, UniProt P35557)
- Construct: GST (glutathione S-transferase) (N)
- Sequence (P35557 1-466 isoform P35557-2): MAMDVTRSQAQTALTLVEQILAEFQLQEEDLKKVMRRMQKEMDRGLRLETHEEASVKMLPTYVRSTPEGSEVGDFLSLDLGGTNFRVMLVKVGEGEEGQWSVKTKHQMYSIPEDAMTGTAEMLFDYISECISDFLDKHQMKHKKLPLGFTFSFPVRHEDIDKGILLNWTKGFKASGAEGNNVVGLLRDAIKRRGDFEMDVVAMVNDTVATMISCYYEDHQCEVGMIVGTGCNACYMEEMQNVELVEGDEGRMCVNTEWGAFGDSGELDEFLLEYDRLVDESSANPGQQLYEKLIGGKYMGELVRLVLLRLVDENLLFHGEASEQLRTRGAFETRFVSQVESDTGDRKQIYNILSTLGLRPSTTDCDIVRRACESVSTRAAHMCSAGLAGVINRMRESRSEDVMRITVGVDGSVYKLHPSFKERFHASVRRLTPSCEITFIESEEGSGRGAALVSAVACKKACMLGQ
- assayOverview: GK activation test
- assayContext: test compound concentration needed to activate 50% of maximum activation ability; 4 mM 14C-labeled glucose, 2 mM ATP, room temperature, 20 minutes
observedProperty: EC50

Some compounds with known EC50 results, for comparison:
compound | EC50
O=C1CC[C@H](/C=C(/c2ccc(Cl)c(=O)[nH]2)c2cccc3ccccc23)N1 | 3 to 10 µM
Cc1ccc(C(C[C@H]2CCC(=O)N2)c2ccc(C3CC3)c(=O)[nH]2)cc1Cl (single isomer, unassigned) [Example 4-216] | 3 to 10 µM
CC(C)(C)c1ccc(/C(=C\CN2CCCCCCC2=O)c2ccc(Cl)c(=O)[nH]2)cc1 | 3 to 10 µM
Cc1ccc(/C(=C/C2CCCC2)c2ccc(S(C)(=O)=O)cc2)[nH]c1=O | 0.5 to 3 µM
Cc1ccc(/C(=C\[C@H]2CCC(=O)N2)c2ccc(Cl)c(=O)[nH]2)cc1Cl | 0.5 to 3 µM

Prompt: // returns reported EC50 for input COc1ccc(/C(=C\CC2CCCO2)c2ccc(C3CC3)c(=O)[nH]2)cc1Cl (stereo not shown)
Completion: 0.5 to 3 µM

Prompt: Request the reported EC50 associated with CC(C)(C)c1ccc(/C(=C\[C@H]2CCC(=O)N2)c2ccc(CCCCO)c(=O)[nH]2)cc1
Completion: 0.01 to 0.5 µM

Prompt: Query (compound): Cc1ccc(/C(=C\[C@H]2CCC(=O)N2)c2ccc(C3CC3)c(=O)[nH]2)c(F)c1 ; field requested: EC50
Completion: 0.01 to 0.5 µM

Prompt: Endpoint output: EC50 of CS(=O)(=O)c1ccc(/C(=C\[C@H]2CCC(=O)N2)c2ccc(C3CC3)c(=O)[nH]2)cc1 . Value?
Completion: 0.01 to 0.5 µM

Prompt: For the compound CCN(CC)CCCOc1ccc(/C(=C\[C@H]2CCC(=O)C2)c2ccc(C(F)(F)F)c(=O)[nH]2)cc1Cl , what EC50 is on record?
Completion: 0.5 to 3 µM

Prompt: State the recorded EC50 for this entry: CSc1ccc(/C(=C\CCNC(C)=O)c2ccc(C3CC3)c(=O)[nH]2)cc1
Completion: 3 to 10 µM

Prompt: Which EC50 is listed for CSc1ccc(/C(=C\[C@H]2CCC(=O)N2C)c2ccc(C3CC3)c(=O)[nH]2)cc1 ?
Completion: 0.01 to 0.5 µM
